target desc: acetylcholinesterase (Electrophorus electricus)
Construct: purchased Sigma C-2888
Sequence (O42275 24-633): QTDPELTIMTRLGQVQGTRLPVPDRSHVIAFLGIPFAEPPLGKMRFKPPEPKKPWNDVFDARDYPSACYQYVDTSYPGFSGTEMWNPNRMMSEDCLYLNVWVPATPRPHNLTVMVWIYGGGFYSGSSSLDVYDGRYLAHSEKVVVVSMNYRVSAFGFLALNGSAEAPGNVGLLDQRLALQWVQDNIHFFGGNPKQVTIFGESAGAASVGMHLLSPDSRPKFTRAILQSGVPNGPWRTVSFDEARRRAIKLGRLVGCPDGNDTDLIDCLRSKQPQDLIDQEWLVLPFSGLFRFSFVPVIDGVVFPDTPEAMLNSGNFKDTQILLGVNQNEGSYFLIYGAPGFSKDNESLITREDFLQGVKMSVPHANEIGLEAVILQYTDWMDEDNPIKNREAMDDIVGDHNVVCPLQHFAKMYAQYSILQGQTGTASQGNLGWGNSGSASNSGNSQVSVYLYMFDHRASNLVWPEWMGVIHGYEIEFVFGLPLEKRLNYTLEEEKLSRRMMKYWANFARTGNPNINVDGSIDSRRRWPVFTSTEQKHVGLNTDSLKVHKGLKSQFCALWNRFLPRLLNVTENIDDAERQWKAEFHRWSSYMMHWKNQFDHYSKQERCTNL
assay summary: Inhibition of acetylcholinesterase activity
Format: biochemical
condition: activity without drug compound taken as 100, average of three measurements, read-out: Inhibition rate (%)
Please provide measured inhibition at 1 µM for the entries that follow.
Respond with the bare value in %.

What does the data say about its inhibition at 1 µM? Entry: Nc1c(N2CCCCC2)c(C2CCCCC2=O)nc2ccccc12 (centres unmarked)
38.1

Cool, now `CCN(CC)c1c(C2CCCCC2)nc2c(c1N)CCCC2`
30.1

Let us now turn to Nc1c2c(nc(C3CCCCC3=O)c1N1CCOCC1)CCCC2 (centres unmarked)
4.2

Another: `Nc1c2c(nc(Nc3ccccc3)c1N1CCOCC1)CCCC2`
37.2

How about this molecule: `CN1CCN(c2cnc3ccccc3c2N)CC1`
27.1
